This section presents compounds with their documented Predicted Hepatic Clearance (Pred. Cl.) values.
test: Microsomal stability (liver microsomal assay, mixed cofactors); predicted hepatic clearance
Assay type: in vitro ADME
run_conditions: liver microsomes 1.0 mg protein/mL (+UDPGA +NADPH), 1 μM analyte, 37° C.; scaled with human liver weight and hepatic blood flow 1.3 L/hr/kg
# unit: L/h/kg | format: bare number

Some entries whose results are on file:
compound: CC1(c2ccc(C(F)(F)F)cc2)Oc2cccc(-c3cc(F)c(Cc4nc5ccc(C(=O)O)cc5n4C[C@@H]4CCO4)cc3F)c2O1 (stereo partly drawn)
measured_result: 0.21
--
compound: COCCn1c(Cc2c(F)cc(-c3cccc4c3OC(CCC(=O)O)(c3ccc(Cl)cc3)N4)cc2F)nc2ccc(C(=O)O)cc21 (stereo not drawn)
measured_result: 0.76
--
compound: COCCn1c(Cc2c(F)cc(-c3cccc4c3O[C@](C)(c3ccc(Cl)cc3F)O4)cc2F)nc2ccc(C(=O)O)cc21
measured_result: 0.25
--
compound: N#Cc1ccc(C2Oc3cccc(-c4cc(F)c(Cc5nc6ccc(C(=O)O)cc6n5C[C@@H]5CCO5)c(F)c4)c3O2)c(F)c1 (stereo partly drawn) [Example 30]
measured_result: 0.21

Q: Answer with the recorded Predicted Hepatic Clearance (Pred. Cl.) of O=C(O)c1ccc2nc(Cc3c(F)cc(-c4cccc5c4CN(c4ccc(Cl)cc4F)C5=O)cc3F)n(C[C@@H]3CCO3)c2c1 only.
A: 0.15

Q: Output measured Predicted Hepatic Clearance (Pred. Cl.) for this item: CC1(c2ccc(Cl)cc2F)Oc2cccc(-c3cc(F)c(Cc4nc5c(F)cc(C(=O)O)cc5n4CC4(CC(N)=O)CC4)c(F)c3)c2O1 (stereo not drawn)
A: 0.15

###

Parameter: Predicted Hepatic Clearance (Pred. Cl.). Scope: all listed entries.
test: Microsomal stability (liver microsomal assay, mixed cofactors); predicted hepatic clearance
Type: in vitro ADME
run_conditions: liver microsomes 1.0 mg protein/mL (+UDPGA +NADPH), 1 μM analyte, 37° C.; scaled with human liver weight and hepatic blood flow 1.3 L/hr/kg
All answers are understood in mL/min/kg, so give the number only.

compound: COCCn1c(Cc2cc(F)c(-c3cccc4c3OC(C)(c3ccc(Cl)cn3)O4)cc2F)nc2ccc(C(=O)O)cc21 (stereo not drawn)
units_label: mL/min/kg
Predicted Hepatic Clearance (Pred. Cl.): 7.67

compound: CC1(c2ccc(Cl)cn2)Oc2cccc(-c3cc(F)c(Cc4nc5ccc(C(=O)O)cc5n4C[C@@H]4CCO4)c(F)c3)c2O1 (single isomer, unassigned) [Example 50]
units_label: mL/min/kg
Predicted Hepatic Clearance (Pred. Cl.): 3.17

Note: attention shifts to another entry.
Q: Provide only the value of recorded Predicted Hepatic Clearance (Pred. Cl.) for CC1(c2ccc(Cl)cc2F)Oc2cccc(-c3cc(F)c(Cc4nc5ccc(C(=O)O)cc5n4CCOC(F)F)c(F)c3)c2O1 (stereo not drawn)
A: 3.3

###

tgt: GLP-1R (Homo sapiens (Human))
test: GLP-1R activation: cAMP increase in CHO cells stably expressing GLP-1R
Assay type: cell-based
run_conditions: cAMP increase, 10 point dose response, 30 minutes incubation at 37° C., read-out: EC50
Protocol: GLP-1R activation by a compound of the present disclosure was quantified by measuring cAMP increase in CHO cells stably expressing GLP-1R (MultiSpan product #C1267-1a). […] The cells were then incubated overnight at 37° C., 5% CO2. […] 1% BSA (Rockland Immunochemicals product #BSA-1000)). Following the medium change, the cells were incubated for 1 hour at 37° C., 5% CO2. […]
// EC50 lookup, one value per entry
Answer format: numeric, µM implied, no suffix.

compound: CC1(c2ccc(Cl)cc2F)Oc2cccc(-c3cc(F)c(Cc4nc5ccc(C(=O)O)cc5n4CC4(CC#N)CC4)c(F)c3)c2O1 (stereo not shown)
units_label: µM
EC50: 0.00051
//
compound: COCCn1c(Cc2cc(-c3cccc4c3OC(C)(c3ccc(Cl)cc3F)O4)cs2)nc2ccc(C(=O)O)cc21 (stereo not shown)
units_label: µM
EC50: 1.62
//
compound: COCCn1c(Cc2c(F)cc(-c3cccc4c3OC(C)(c3ccc(C#N)cc3F)O4)cc2F)nc2ccc(C(=O)O)cc21 (single isomer, unassigned) [Example 98]
units_label: µM
EC50: 0.067

Q: Dear colleague, please send me the reported EC50 for CC(=O)N1CC[C@@H]1Cn1c(Cc2ccc(-c3cccc4c3OC(C)(c3ccc(Cl)cc3F)O4)cc2F)nc2ccc(C(=O)O)cc21 (stereo partly shown) when you can.
A: 0.0043

Q: Please supply the value of reported EC50 for the item COCCn1c(Cc2cc(F)c(-c3cccc4c3OC(c3ccc(C#N)cc3F)O4)cc2F)nc2ccc(C(=O)O)cc21 (stereo not shown) [Example 31]
A: 0.089

Q: Find the measured EC50 of COCCn1c(Cc2c(F)cc(-c3cccc4c3O[C@@](C)(c3ccc(Cl)cc3F)O4)cc2F)nc2ccc(C(=O)O)cc21 and report it.
A: 0.065

Q: Entry N#Cc1ccc(C2Oc3cccc(-c4cc(F)c(Cc5nc6ccc(C(=O)O)cc6n5C[C@@H]5CCO5)c(F)c4)c3O2)c(F)c1 (single isomer, unassigned) [Example 42] needs its EC50 filled in; supply it.
A: 0.0011

Q: Quick one: give measured EC50 for CC1(c2ccc(Cl)cc2F)Oc2cccc(-c3ccc(Cc4nc5ccc(C(=O)O)cc5n4C[C@@H]4CCO4)cn3)c2O1 (stereo partly shown)
A: 0.072

Q: Find the measured EC50 of O=C(O)c1ccc2nc(Cc3c(F)cc(-c4cccc5c4CN(c4ccc(Cl)cc4F)C5=O)cc3F)n(C[C@@H]3CCO3)c2c1 and report it.
A: 10

Q: Report measured EC50; entry is CC1(c2ccc(Cl)cn2)Oc2cccc(-c3cc(F)c(Cc4nc5ccc(C(=O)O)cc5n4C[C@@H]4CCO4)c(F)c3)c2O1 (single isomer, unassigned) [Example 50]
A: 0.016

Q: Look up and state reported EC50 for CC1(c2ccc(Cl)cc2F)Oc2cccc(-c3cc(F)c(Cc4nc5ccc(C(=O)O)c(F)c5n4C[C@@H]4CCO4)c(F)c3)c2O1 (stereo partly shown)
A: 0.00017

Q: Specify EC50 for COCCn1c(Cc2c(F)cc(-c3cccc4c3OC3(CCCCc5cc(Cl)ccc53)O4)cc2F)nc2ccc(C(=O)O)cc21 (stereo not shown) and stop.
A: 0.347

Q: // fetch EC50 given entry COCCn1c(Cc2ccc(-c3cccc4c3OC(C)(c3ccc(Cl)cc3F)O4)[nH]c2=O)nc2ccc(C(=O)O)cc21 (stereo not shown)
A: 0.013

###

tgt: GLP-1R (Homo sapiens (Human), UniProt P43220)
Sequence (P43220 24-463): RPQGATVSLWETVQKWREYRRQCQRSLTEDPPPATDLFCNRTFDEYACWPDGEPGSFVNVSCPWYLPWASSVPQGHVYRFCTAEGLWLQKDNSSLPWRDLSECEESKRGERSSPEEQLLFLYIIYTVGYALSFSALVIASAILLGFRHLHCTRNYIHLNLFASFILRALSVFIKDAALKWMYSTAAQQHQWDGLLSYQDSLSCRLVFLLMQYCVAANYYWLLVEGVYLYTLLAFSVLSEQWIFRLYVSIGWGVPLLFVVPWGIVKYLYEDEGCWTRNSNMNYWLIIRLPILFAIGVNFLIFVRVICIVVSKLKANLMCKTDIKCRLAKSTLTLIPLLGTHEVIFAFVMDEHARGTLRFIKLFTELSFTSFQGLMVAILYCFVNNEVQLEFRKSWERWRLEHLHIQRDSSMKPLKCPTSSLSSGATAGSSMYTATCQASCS
test: GLP-1R activation: cAMP increase in CHO cells stably expressing GLP-1R
Format: cell-based
run_conditions: cAMP increase, 10 point dose response, 30 minutes incubation at 37° C., read-out: EC50
Protocol: GLP-1R activation by a compound of the present disclosure was quantified by measuring cAMP increase in CHO cells stably expressing GLP-1R (MultiSpan product #C1267-1a). […] The cells were then incubated overnight at 37° C., 5% CO2. […] 1% BSA (Rockland Immunochemicals product #BSA-1000)). Following the medium change, the cells were incubated for 1 hour at 37° C., 5% CO2. […]
reported_metric: EC50 (nM)
Hi! Could you send only the number? It should be in nM, unit omitted.

compound: COCCn1c(Cc2ccc(-c3cccc4c3OC(c3ccc(C#N)cc3F)O4)cc2F)nc2ccc(C(=O)O)cc21 (single isomer, unassigned) [Example 34]
EC50, nM: 350

compound: CC1(c2ccc(Cl)cc2F)Oc2cccc(-c3ccc(Cc4nc5ccc(C(=O)O)cc5n4C[C@@H]4CCO4)cc3F)c2O1 (stereo partly drawn)
EC50, nM: 0.015

Q: Provide one value: measured EC50 of O=C(O)c1ccc2nc(Cc3c(F)cc(-c4cccc5c4CN(c4ccc(Cl)cc4F)C5)cc3F)n(C[C@@H]3CCO3)c2c1
A: 10000

###

tgt: UniProt:P43220
test: GLP-1R activation: cAMP increase in CHO cells stably expressing GLP-1R
Format: cell-based
run_conditions: cAMP increase, 10 point dose response, 30 minutes incubation at 37° C., read-out: EC50
Measured EC50 by item
Kindly answer with a numeric value in nM, unit omitted.

compound: COCCn1c(Cc2ccc(-c3cccc4c3OC(c3ccc(C#N)cc3F)O4)cc2F)nc2ccc(C(=O)O)cc21 (stereo not shown) [Example 4]
EC50 / nM: 103
--
compound: CC1(c2ccc(Cl)cn2)Oc2cccc(-c3cc(F)c(Cc4nc5ccc(C(=O)O)cc5n4C[C@@H]4CCO4)c(F)c3F)c2O1 (stereo partly shown)
EC50 / nM: 0.78
--
compound: CC1(c2ccc(Cl)cn2)Oc2cccc(-c3cc(F)c(Cc4nc5ccc(C(=O)O)cc5n4C[C@@H]4CCO4)cc3F)c2O1 (single isomer, unassigned) [Example 46]
EC50 / nM: 17
--
compound: COCCn1c(Cc2ccc(-c3cccc4c3OC(c3ccccc3)O4)cc2F)nc2ccc(C(=O)O)cc21 (single isomer, unassigned) [Example 35]
EC50 / nM: 646
--
compound: COCCn1c(Cc2c(F)cc(-c3cccc4c3OC(C)(c3ccc(C#N)cn3)O4)cc2F)nc2ccc(C(=O)O)cc21 (stereo not shown)
EC50 / nM: 21

Q: Find the measured EC50 of COCCn1c(Cc2cc(F)c(-c3c(F)ccc4c3OC(C)(c3ccc(Cl)cn3)O4)cc2F)nc2ccc(C(=O)O)cc21 (stereo not shown) and report it.
A: 160

Q: Specify reported EC50 for the compound shown: COCCn1c(Cc2c(F)cc(-c3c(F)ccc4c3OC(C)(c3ccc(Cl)cn3)O4)cc2F)nc2ccc(C(=O)O)cc21 (stereo not shown)
A: 14

Q: Quick one: give measured EC50 for COCCn1c(Cc2ccc(-c3cccc4c3OC(c3ccccc3)O4)cc2F)nc2ccc(C(=O)O)cc21 (stereo not shown) [Example 32]
A: 1920

The reported numbers originate from patent US20250099431A1.
